- assaySystem: Tyrosine-protein kinase JAK3 (Homo sapiens, UniProt P52333)
- Sequence (P52333 whole entry): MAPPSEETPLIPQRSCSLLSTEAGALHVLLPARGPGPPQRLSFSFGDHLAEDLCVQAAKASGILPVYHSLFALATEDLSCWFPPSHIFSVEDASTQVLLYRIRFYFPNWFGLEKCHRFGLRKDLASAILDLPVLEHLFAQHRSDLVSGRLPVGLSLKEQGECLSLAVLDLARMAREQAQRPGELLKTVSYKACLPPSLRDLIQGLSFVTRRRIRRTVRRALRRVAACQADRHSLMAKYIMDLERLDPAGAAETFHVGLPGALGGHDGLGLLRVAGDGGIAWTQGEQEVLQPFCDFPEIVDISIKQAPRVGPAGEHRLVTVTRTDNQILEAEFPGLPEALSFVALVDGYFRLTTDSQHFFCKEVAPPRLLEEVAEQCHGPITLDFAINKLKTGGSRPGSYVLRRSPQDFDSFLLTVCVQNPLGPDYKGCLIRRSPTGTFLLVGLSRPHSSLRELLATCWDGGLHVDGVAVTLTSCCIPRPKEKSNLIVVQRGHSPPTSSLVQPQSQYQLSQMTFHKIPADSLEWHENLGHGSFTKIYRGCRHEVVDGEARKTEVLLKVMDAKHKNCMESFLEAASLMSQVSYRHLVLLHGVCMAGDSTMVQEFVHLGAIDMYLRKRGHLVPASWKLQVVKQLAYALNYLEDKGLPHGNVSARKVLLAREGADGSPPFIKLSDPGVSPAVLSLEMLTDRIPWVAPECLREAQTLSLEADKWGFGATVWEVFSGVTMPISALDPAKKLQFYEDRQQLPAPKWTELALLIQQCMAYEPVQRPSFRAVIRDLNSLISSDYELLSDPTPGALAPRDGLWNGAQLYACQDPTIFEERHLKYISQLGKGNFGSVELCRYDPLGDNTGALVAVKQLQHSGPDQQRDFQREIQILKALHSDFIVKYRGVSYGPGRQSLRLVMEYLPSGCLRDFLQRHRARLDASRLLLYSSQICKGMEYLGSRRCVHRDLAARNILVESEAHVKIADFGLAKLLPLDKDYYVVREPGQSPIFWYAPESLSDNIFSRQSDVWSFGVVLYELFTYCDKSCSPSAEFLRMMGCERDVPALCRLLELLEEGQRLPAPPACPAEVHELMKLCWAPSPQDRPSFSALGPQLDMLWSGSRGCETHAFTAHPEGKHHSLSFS
- testName: Inhibition of JAK3 in human T-blast cells assessed as reduction in IL-2 induced STAT5 phosphorylation preincubated for 30 mins followed by IL-2 stimulation and measured after 20 mins by AlphaScreen assay
- Format: cell-based, T-blast cell
pEC50: −log10 of the molar value.
This listing pairs molecules with measured pEC50.
measure: pEC50

INSERT INTO assay_data (testsmiles, assaysystem, measure, result) VALUES
  ('COCc1cc(-c2cn(C3COC3)c3cnc(NC(C)=O)cc23)nc([C@]2(OC)CCOC2)c1', 'Tyrosine-protein kinase JAK3 (Homo sapiens, UniProt P52333)', 'pEC50', '< 4.70'),
  ('CC(=O)Nc1cc2c(-c3cccc(S(=O)(=O)N(C)C)c3)c[nH]c2cn1', 'Tyrosine-protein kinase JAK3 (Homo sapiens, UniProt P52333)', 'pEC50', '< 4.72'),
  ('CO[C@@]1(c2cc(O[C@@H](C)CCO)cc(-c3cn(C)c4cnc(NC(C)=O)cc34)n2)CCOC1', 'Tyrosine-protein kinase JAK3 (Homo sapiens, UniProt P52333)', 'pEC50', '< 4.70'),
  ('CO[C@@]1(c2cc(OCC[C@@H](C)O)cc(-c3cn(C)c4cnc(NC(C)=O)cc34)n2)CCOC1', 'Tyrosine-protein kinase JAK3 (Homo sapiens, UniProt P52333)', 'pEC50', '< 4.70');
